I'd be grateful if you could share measured viability for these entries.
# measurement-protocol: compounds raising F508del-CFTR protein level – cell-based, HeLa F508del-CFTR, immunofluorescence, viability, primary screen (AID 1224863)
# assay-conditions: immunofluorescence total CFTR, 24 h, stronger effect = higher value; measured here: primary viability 10 ug/mL, library dosed in µg/mL unless noted
Out of some 10,000 compounds screened, about 15 (0.1%) were called active. A selection follows.
Please respond with the number in % and leave the unit unwritten.

Item CC(C)c1ccc(C(NC(=O)CN2C(=O)NC(C)(c3ccc4c(c3)OCO4)C2=O)C(C)C)cc1 (stereo not given) has what recorded viability? 81

Item O=C(NCCc1ccccc1F)NC1CCSc2ccccc21 (stereo not given) has what recorded viability? 95

Item Nc1cnn(CCO)c1 has what recorded viability? 92

Item Fc1ccc(-c2[nH]ncc2CNCc2ccccc2Cn2cncn2)cc1 has what recorded viability? 104

Item COc1cc(OC)cc(-c2nnc(SCCc3ccccc3)o2)c1 has what recorded viability? 105

Item Cn1c(SCc2ccc(-n3cccn3)cc2)nc2ccccc21 has what recorded viability? 92

Item CN(C)C(=O)c1ccc(N2CCOC2=O)cc1 has what recorded viability? 97

Item COCCn1c(SCC(=O)c2[nH]c(C)c(C(C)=O)c2C)nc2sc3c(c2c1=O)CCCC3 has what recorded viability? 102

Item CCN(CC)S(=O)(=O)c1cc2c(cc1Br)NC(=O)CO2 has what recorded viability? 92

Item Cc1cc(C)n2c(SCc3cc(-c4ccccc4)on3)nnc2n1 has what recorded viability? 97

Item CCNc1nc(C)nc2sc(CC)cc12 has what recorded viability? 84

Item CCc1nc2ccccc2n1CCOc1ccc(Br)cc1 has what recorded viability? 81

Item COc1cc(OC)c(CNC(C)c2ccc(F)cc2F)c(OC)c1 (stereo not given) has what recorded viability? 103

Item Cc1ccc(-c2nc(-c3ccc(C(C)(C)C)cc3)c(C)s2)cc1 has what recorded viability? 96

Item Fc1ccc2sc(CNc3ccc4nnnn4n3)cc2c1 has what recorded viability? 105

* * *

# measurement-protocol: compounds raising F508del-CFTR protein level – cell-based, HeLa F508del-CFTR, immunofluorescence, viability, primary screen (AID 1224863)
# assay-conditions: immunofluorescence total CFTR, 24 h, stronger effect = higher value; measured here: primary viability 10 ug/mL, library dosed in µg/mL unless noted
Out of some 10,000 compounds screened, about 15 (0.1%) were called active. A selection follows.
I'd be grateful if you could share measured viability for these entries.
Please respond with the number in % and leave the unit unwritten.

Item Cc1noc(C)c1CN1CCCC(NS(C)(=O)=O)C1 (centres undefined) has what recorded viability? 110

Item Clc1ccc(-c2nc(Sc3ccccc3Cl)c3c4c(sc3n2)CCC4)cc1 has what recorded viability? 91

Item O=C(CNC(=O)c1ccco1)NC1CCC2CCCCC2C1 (centres undefined) has what recorded viability? 75

Item CC1CCCN(S(=O)(=O)N2CCC(N3CCCc4ccccc43)CC2)C1 (centres undefined) has what recorded viability? 82

Item C=CCn1c(SCC)nnc1-c1ccc([N+](=O)[O-])cc1 has what recorded viability? 88

Item Cc1cc(C(=O)OC(C)C(N)=O)c(C)n1CC(F)(F)F (centres undefined) has what recorded viability? 88

Item O=S(=O)(c1ccc(S(=O)(=O)N(Cc2ccc3c(c2)OCO3)C2CCCC2)cc1)N1CCCC1 has what recorded viability? 98

Item N#Cc1ccc(/C=C2\CSc3ccccc3C2=O)cc1 has what recorded viability? 56

Item Cn1ncc2c(NCC(=O)NC(C)(C)C)ncnc21 has what recorded viability? 91
